- study target: JAK 2 (Homo sapiens, UniProt O60674)
- Sequence (O60674 whole entry): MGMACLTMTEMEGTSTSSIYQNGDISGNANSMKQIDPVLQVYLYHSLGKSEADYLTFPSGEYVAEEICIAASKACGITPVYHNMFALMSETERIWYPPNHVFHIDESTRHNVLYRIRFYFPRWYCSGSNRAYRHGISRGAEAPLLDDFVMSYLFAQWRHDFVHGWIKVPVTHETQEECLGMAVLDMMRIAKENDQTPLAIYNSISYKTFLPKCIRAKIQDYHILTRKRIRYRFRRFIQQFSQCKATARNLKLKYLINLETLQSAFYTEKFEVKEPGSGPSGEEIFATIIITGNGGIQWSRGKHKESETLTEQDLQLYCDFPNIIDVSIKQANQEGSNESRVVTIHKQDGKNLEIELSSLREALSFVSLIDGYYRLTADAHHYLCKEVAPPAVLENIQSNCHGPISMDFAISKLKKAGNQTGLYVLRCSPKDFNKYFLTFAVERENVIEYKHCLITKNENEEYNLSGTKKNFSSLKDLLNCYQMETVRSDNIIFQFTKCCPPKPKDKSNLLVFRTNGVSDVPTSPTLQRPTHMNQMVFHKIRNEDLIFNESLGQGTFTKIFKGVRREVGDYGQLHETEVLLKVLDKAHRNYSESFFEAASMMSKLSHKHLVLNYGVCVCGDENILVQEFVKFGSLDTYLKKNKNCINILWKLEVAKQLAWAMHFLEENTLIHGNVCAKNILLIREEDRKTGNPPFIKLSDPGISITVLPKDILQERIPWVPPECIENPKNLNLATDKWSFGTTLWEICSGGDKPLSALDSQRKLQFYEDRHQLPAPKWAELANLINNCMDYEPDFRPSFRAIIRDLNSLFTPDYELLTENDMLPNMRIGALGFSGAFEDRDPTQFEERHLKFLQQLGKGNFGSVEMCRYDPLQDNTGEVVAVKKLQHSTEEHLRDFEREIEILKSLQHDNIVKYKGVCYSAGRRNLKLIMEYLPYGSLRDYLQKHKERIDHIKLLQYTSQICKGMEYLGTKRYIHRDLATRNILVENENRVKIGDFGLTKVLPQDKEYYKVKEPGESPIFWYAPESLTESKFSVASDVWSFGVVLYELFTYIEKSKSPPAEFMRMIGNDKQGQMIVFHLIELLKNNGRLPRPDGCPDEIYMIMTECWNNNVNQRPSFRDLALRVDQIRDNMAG
- assay remarks: Biochemical potency on JAK2, TR-FRET LANCE Ultra kinase assay (examples 1-99)
- condition notes: ATP at Km (0.7 μM), read-out: JAK2 inhibitory activity (pIC50 class) (converted)
Some compounds, each annotated with its measured IC50.

Reported IC50 for CNC(=O)CN(C)[C@H]1C[C@H](NC(=O)c2nn(-c3cc(Cl)ccc3OC)c3cc(-c4cnn5cccnc45)ncc23)C1 : what is it?
5.01 to 50.1 nM

Which measured IC50 value corresponds to COc1ccc(C(F)F)cc1-n1nc(NCCN(C)C)c2cnc(Nc3ncc[nH]c3=O)cc21 ?
5.01 to 50.1 nM

State the recorded IC50 for this entry: COc1ccc(S(C)(=O)=O)cc1-n1nc(NCCN2CCOCC2)c2cnc(-c3cnn4cccnc34)cc21
5.01 to 50.1 nM

# input compound: COCCSc1ccc(OC(F)F)c(-n2nc(C)c3cnc(Nc4ncc[nH]c4=O)cc32)c1 ; wanted: its IC50
≤ 5.01 nM

Give the measured IC50 of Cc1nn(-c2cc(SC3CC3)ccc2OC(F)F)c2cc(-c3cnn4cccnc34)ncc12 .
5.01 to 50.1 nM

// returns reported IC50 for input Cc1nn(-c2cc(SCC(=O)NCCO)ccc2OC(F)F)c2cc(-c3cnn4cccnc34)ncc12
5.01 to 50.1 nM

Query: IC50; subject: COc1ccc(Cl)cc1-n1nc(N2CCN(C(C)=O)CC2)c2cnc(-c3cnn4cccnc34)cc21
5.01 to 50.1 nM

Would you kindly share the measured IC50 for COc1ccc(Cl)cc1-n1nc(N2CCNCC2)c2cnc(-c3cnn4cccnc34)cc21 ?
5.01 to 50.1 nM

Fill blank: measured IC50 of the compound COc1cc(O)c(C)cc1-n1nc(C)c2cnc(-c3cnn4cccnc34)cc21 is ____.
≤ 5.01 nM

Give the measured IC50 of COc1ccc(Cl)cc1-n1ncc2c(NC(C)=O)nc(-c3cnn4cccnc34)cc21 .
5.01 to 50.1 nM

Bench note: what IC50 did COc1ccc(F)cc1-n1nc(C(=O)NCCCN(C)C)c2cnc(Nc3ncc[nH]c3=O)cc21 show?
5.01 to 50.1 nM

State the recorded IC50 for this entry: Cc1nn(-c2cc(Cl)ccc2OC2CC2)c2cc(-c3cnn4cccnc34)ncc12
≤ 5.01 nM

Can you share its IC50? I mean this compound: COc1ccc(Cl)cc1-n1nc(C)c2cnc(-c3cnn4cccnc34)cc21
≤ 5.01 nM
